Molecular target: CCR4 receptor (Homo sapiens)
Construct: cDNA fragments of receptor open reading frame were respectively inserted into pcDI; expressed in transfected cells; host or cells: HEK293 cells, transiently transfected by electroporation with pCDI-CCR4
Assay: Inhibition of MDC/TARC/C27 mediated chemotactic response of CCR4-transfected HEK293 cells (Boyden chamber)
Format: cell-based
Conditions: chemotactic inhibition rate; chemokine MDC 10 ng/mL; compound 1 μM; HEK293 cells transfected with pCDI-CCR4; 5 hours; read-out: MDC inhibition rate
Lab note: anything with inhibition at 1 µM at or over 50% counts as true; the rest go in false.

Observe how each entry below is paired with its result.
CCC(=O)N1CCN(c2nc(NCc3ccc(Cl)cc3Cl)cc(N(CCOC)CCOC)n2)CC1 [Compound 4]; true
O=C(C1CCCCC1)N1CCN(c2nc(NCc3ccc(Cl)cc3Cl)c3cccnc3n2)CC1 [Compound 12]; true
CCC(=O)N1CCN(c2nc(NCc3ccc(Cl)cc3Cl)cc(N(C)CC(OC)OC)n2)CC1 [Compound 1]; false
COCCN(CCOC)c1cc(NCc2ccc(Cl)cc2Cl)nc(N2CCN(C(=O)C(C)C)CC2)n1 [Compound 5]; true
O=C([C@H]1CCCCN1)N1CCN(c2nc(Cl)cc(NCc3ccc(Cl)cc3Cl)n2)CC1 [Compound 8]; true

# check: inhibition at 1 µM of CCC(=O)N1CCN(c2nc(NCc3ccc(Cl)cc3Cl)c3cccnc3n2)CC1 [Compound 10] is greater than or equal to 50%
false

Does COC(CN(C)c1cc(NCc2ccc(Cl)cc2Cl)nc(N2CCN(C(=O)C(C)C)CC2)n1)OC [Compound 2] have a reported inhibition at 1 µM of at least 50%?
false

Hello, I need to know if COC(CN(C)c1cc(NCc2ccc(Cl)cc2Cl)nc(N2CCN(C(=O)CCSC)CC2)n1)OC [Compound 3] has measured inhibition at 1 µM not below 50%. Thanks!
false

Could you please find out whether O=C([C@@H]1CSCCN1)N1CCN(c2nc(NCc3ccc(Cl)cc3Cl)c3cccnc3n2)CC1 [Compound 14] has inhibition at 1 µM that meets 50% or exceeds it?
true

* * *

Target: CCR4 receptor (Homo sapiens, UniProt P51679)
Construct: cDNA fragments of receptor open reading frame were respectively inserted into pcDI; expressed in transfected cells; host or cells: HEK293 cells, transiently transfected by electroporation with pCDI-CCR4
Sequence (P51679 whole entry, the tested form may be a part): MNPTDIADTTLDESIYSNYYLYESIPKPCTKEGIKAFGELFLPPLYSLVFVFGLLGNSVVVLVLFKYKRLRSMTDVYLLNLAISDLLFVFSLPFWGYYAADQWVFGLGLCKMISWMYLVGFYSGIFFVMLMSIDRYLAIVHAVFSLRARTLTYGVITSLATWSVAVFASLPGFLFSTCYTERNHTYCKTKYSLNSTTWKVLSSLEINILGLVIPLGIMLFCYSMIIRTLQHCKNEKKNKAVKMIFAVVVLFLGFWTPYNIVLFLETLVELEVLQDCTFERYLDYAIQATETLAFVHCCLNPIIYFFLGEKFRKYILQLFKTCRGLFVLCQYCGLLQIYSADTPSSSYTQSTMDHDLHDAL
Assay: Inhibition of MDC/TARC/C27 mediated chemotactic response of CCR4-transfected HEK293 cells (Boyden chamber)
Format: cell-based
Settings: chemotactic inhibition rate; chemokine MDC 10 ng/mL; compound 1 μM; HEK293 cells transfected with pCDI-CCR4; 5 hours; read-out: MDC inhibition rate
Measured inhibition at 1 µM of individual entries
Give the quantity in %, number only.

# annotated cases, reported inhibition at 1 µM shown
COCCN(CCOC)c1cc(NCc2ccc(Cl)cc2Cl)nc(N2CCN(C(=O)CCSC)CC2)n1; 19.4
CC(C)C(=O)N1CCN(c2nc(NCc3ccc(Cl)cc3Cl)c3cccnc3n2)CC1; 32.3
O=C([C@@H]1CSCCN1)N1CCN(c2nc(Cl)cc(NCc3ccc(Cl)cc3Cl)n2)CC1; 22.2

// next item, inhibition at 1 µM requested
Give inhibition at 1 µM; test system CCR4 receptor (Homo sapiens, UniProt P51679); compound COCCN(CCOC)c1cc(NCc2ccc(Cl)cc2Cl)nc(N2CCN(C(=O)C3CCCCC3)CC2)n1
30
